Target or system: collagen
Assay: SILY binding to collagen (Biacore surface plasmon resonance)
Experimental context: calculated from the on-off binding kinetics; collagen on CM-3 chip
Reported endpoint: pKd
For clarity, pKd is expressed as the negative log10 of concentration in mol/L.

Kindly note the recorded pKd for RRANAALKAGELYKSILYGC , which is 5.92
